test: Pediatric phase 1 trial: plasma pharmacokinetics after first dose; set-up: species or system human; settings: human, in vivo, iv, 7 mg/m2, Cmax
ASSAY METRIC: Cmax (ng/mL)
A number alone suffices; assume ng/mL.

Q. # input compound: `Cc1ccc(C(=O)N(CCCN)[C@@H](c2nc3cc(Cl)ccc3c(=O)n2Cc2ccccc2)C(C)C)cc1` ; wanted: its Cmax
A. 244

====

assay: Pediatric phase 1 trial: plasma pharmacokinetics after first dose; parameters: species or system human; settings: human, in vivo, 5 mg/m2, Cmax
ASSAY METRIC: Cmax
Reply with the number and its unit after it.

Q. Param item = Cc1ccc(C(=O)N(CCCN)[C@@H](c2nc3cc(Cl)ccc3c(=O)n2Cc2ccccc2)C(C)C)cc1 [ispinesib, Ispinesib] ; retrieve measured Cmax.
A. 0.145 µg/mL
